- ASSAYED_TARGET: SARS-CoV-2 main protease (M^pro) (Severe acute respiratory syndrome coronavirus 2, UniProt P0DTD1)
- PROTOCOL_DETAILS: protein-observed mass spectrometry (POMS) under denaturing conditions, number of covalent reactions
- Type: binding
- CONDITION_PARAMETERS: 40 μM compound, 2 μM M^pro, 20 mM HEPES, pH 7.5, 50 mM NaCl; covalent reactions with M^pro
Measured most dominant no. of reactions values are reported for all entries that follow.
API note: the answer field is a bare number with no unit suffix.

Param item = O=c1c2ccccc2sn1Cc1ccccc1 [Compound 5] ; retrieve measured most dominant no. of reactions. 4

As a next step, examine the molecule that follows.
Sample O=c1c2cc(Br)ccc2sn1-c1ccccc1 [Compound 3e] — what was its most dominant no. of reactions? 1

---

A collection of compounds and their measured pIC50
- ASSAYED_TARGET: SARS-CoV-2 main protease (M^pro) (Severe acute respiratory syndrome coronavirus 2, UniProt P0DTD1)
- PROTOCOL_DETAILS: biochemical
- CONDITION_PARAMETERS: FRET IC50, 50 nM M^pro, […] substrate, pH 7.3, 15 min pre-incubation
Quick note: pIC50 means taking -log10 of the concentration in moles per liter.

# input compound: COCCn1sc2ccccc2c1=O ; wanted: its pIC50 6.02

Next:
Form field: reported pIC50 of O=c1[nH]sc2ccccc12 5.82

---

- ASSAYED_TARGET: UniProt P0DTD1
- PROTOCOL_DETAILS: biochemical
- CONDITION_PARAMETERS: 50 nM M^pro, […] substrate, pH 7.3, 15 min pre-incubation; read-out: FRET pIC50 (converted)
Label key: yes (1) means IC50 under 200 nM; no (0) means IC50 of 200 nM or more.

Sample answers from the record:
Please check: IC50 for COC(=O)CCn1sc2ccccc2c1=O , strictly under 200 nM or not? no (0)

A record lists CCCCCn1sc2ccccc2c1=O . Is its IC50 below 200 nM? no (0)

Does the reported IC50 of the following compound sit strictly below 200 nM? O=c1c2ccccc2sn1-c1ccccn1 no (0)

Given CC(C)CCn1sc2ccccc2c1=O , is recorded IC50 strictly lower than 200 nM? no (0)

API: query returns whether the compound falls strictly under 200 nM in IC50. Query: O=c1c2ccccc2sn1-c1ccccc1 yes (1)

Further cases:
Record CC(C)CCn1sc2ccc(Br)cc2c1=O : is its IC50 strictly below 200 nM? no (0)

---

IC50 reference
- ASSAYED_TARGET: SARS-CoV-2 main protease (M^pro) (Severe acute respiratory syndrome coronavirus 2, UniProt P0DTD1)
- PROTOCOL_DETAILS: biochemical
- CONDITION_PARAMETERS: M^pro (0.3 µM) incubated 15 min with compound, TSAVLQ/SGFRK-NH2 peptide (4 µM), 10 min reaction; read-out: SPE-MS IC50
Kindly answer with a numeric value in µM, unit omitted.

Before answering, review these 4 worked examples.
So what's the measured IC50 for this one? CC(C)CCn1sc2ccc(Br)cc2c1=O 0.43

Requested read-out: IC50. Entry: O=c1c2ccccc2sn1-c1ccccn1 0.79

# input molecule: CCCCCn1sc2ccccc2c1=O ; wanted: its IC50 0.47

For O=c1c2ccccc2sn1Cc1ccccc1 , what is its reported IC50? 0.43

Now for another entry.
Report IC50 for O=c1c2cccc(Br)c2sn1-c1ccccc1 please. 10.9
